- CONDITION: in chloroform, 313.15 K
READOUT_NAME: solubility (mole fraction)
Enter the number alone.

Q: Item "c1ccc(-n2c3ccccc3c3ccccc32)cc1" has what recorded solubility (mole fraction)?
Result: 0.753

* * *

- CONDITION: in isopropanol, 308.15 K
READOUT_NAME: solubility (mole fraction)
Enter the number alone.

Q: Item "c1ccc(-n2c3ccccc3c3ccccc32)cc1" has what recorded solubility (mole fraction)?
Result: 0.00458

* * *

- CONDITION: in n-butanol, 303.15 K
READOUT_NAME: solubility (mole fraction)
Enter the number alone.

Q: Item "c1ccc(-n2c3ccccc3c3ccccc32)cc1" has what recorded solubility (mole fraction)?
Result: 0.00468

* * *

- CONDITION: in n-hexane, 293.15 K
READOUT_NAME: solubility (mole fraction)
Enter the number alone.

Q: Item "c1ccc(-n2c3ccccc3c3ccccc32)cc1" has what recorded solubility (mole fraction)?
Result: 0.0494

* * *

- CONDITION: in THF, 313.15 K
READOUT_NAME: solubility (mole fraction)

Q: Item "c1ccc(-n2c3ccccc3c3ccccc32)cc1" has what recorded solubility (mole fraction)?
Result: 0.562

* * *

- CONDITION: in n-propanol, 303.15 K
READOUT_NAME: solubility (mole fraction)
Enter the number alone.

Q: Item "c1ccc(-n2c3ccccc3c3ccccc32)cc1" has what recorded solubility (mole fraction)?
Result: 0.00749

* * *

- CONDITION: in methanol, 308.15 K
READOUT_NAME: solubility (mole fraction)
Enter the number alone.

Q: Item "c1ccc(-n2c3ccccc3c3ccccc32)cc1" has what recorded solubility (mole fraction)?
Result: 0.000427

* * *

- CONDITION: in 1,4-dioxane, 293.15 K
READOUT_NAME: solubility (mole fraction)
Enter the number alone.

Q: Item "c1ccc(-n2c3ccccc3c3ccccc32)cc1" has what recorded solubility (mole fraction)?
Result: 0.213

* * *

- CONDITION: in ethanol, 283.15 K
READOUT_NAME: solubility (mole fraction)
Enter the number alone.

Q: Item "c1ccc(-n2c3ccccc3c3ccccc32)cc1" has what recorded solubility (mole fraction)?
Result: 0.00167

* * *

- CONDITION: in n-propanol, 278.15 K
READOUT_NAME: solubility (mole fraction)
Enter the number alone.

Q: Item "c1ccc(-n2c3ccccc3c3ccccc32)cc1" has what recorded solubility (mole fraction)?
Result: 0.00298

* * *

- CONDITION: in 1,4-dioxane, 313.15 K
READOUT_NAME: solubility (mole fraction)

Q: Item "c1ccc(-n2c3ccccc3c3ccccc32)cc1" has what recorded solubility (mole fraction)?
Result: 0.717

* * *

- CONDITION: in n-propanol, 293.15 K
READOUT_NAME: solubility (mole fraction)
Enter the number alone.

Q: Item "c1ccc(-n2c3ccccc3c3ccccc32)cc1" has what recorded solubility (mole fraction)?
Result: 0.00517

* * *

- CONDITION: in chloroform, 298.15 K
READOUT_NAME: solubility (mole fraction)
Enter the number alone.

Q: Item "c1ccc(-n2c3ccccc3c3ccccc32)cc1" has what recorded solubility (mole fraction)?
Result: 0.461

* * *

- CONDITION: in THF, 298.15 K
READOUT_NAME: solubility (mole fraction)
Enter the number alone.

Q: Item "c1ccc(-n2c3ccccc3c3ccccc32)cc1" has what recorded solubility (mole fraction)?
Result: 0.386

* * *

- CONDITION: in chloroform, 288.15 K
READOUT_NAME: solubility (mole fraction)
Enter the number alone.

Q: Item "c1ccc(-n2c3ccccc3c3ccccc32)cc1" has what recorded solubility (mole fraction)?
Result: 0.322
